# Lookup of reported activation keyed by entry
Tested on: Nuclear hormone receptor DAF-12 (Strongyloides stercoralis)
Test: S. stercoralis DAF-12 nuclear receptor activators, primary screen, cell-based, luminescence, HEK293, GRIP1 co-expression, lit1-tk-luc (AID 652126);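 note: 0% = DMSO-only wells and 100% = 3 µM delta7-dafachronic acid wells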
Details: HEK293 ssDAF-12/GRIP1 lit1-tk-luc reporter, at 6.8 µM, active compounds read high, % of 3 µM dafachronic acid response
The whole screen tested about 370,000 compounds, of which about 3,700 (1%) were called active. This excerpt belongs to a sample that is enriched for actives.
Give the value, in units of %, as a plain number.

Measured activation, `CCN(CC)CC(=O)Nc1sc2c(c1C(=O)c1ccccc1C)CCC2` : -1.11
